All figures here come from ChEMBL document CHEMBL5104164.

experiment: AUC (0 to infinity) in male BALB/c mouse at 2 mg/kg, iv; assay type: ADME, organism-based; set-up: time infinity, dose 2 mg/kg, route iv; details: in vivo
parameter: AUC(0-inf) (ng·h/mL)

smiles_text=C=CC(=O)N1CCC(CNc2ncnc3[nH]cc(C(=O)N4CC(Oc5cccc(Cl)c5)C4)c23)CC1 test_result=541
smiles_text=CC#CC(=O)N1CCC(c2c[nH]c3ncnc(-c4ccc(CNC(=O)c5ccc(C(C)(C)C)cc5)c(F)c4)c23)CC1 test_result=231
smiles_text=C=CC(=O)N1CCC(CNc2ncnc3[nH]cc(C(=O)N4CC(Oc5cccc(F)c5)C4)c23)CC1 test_result=541
smiles_text=C=CC(=O)N1CC=C(c2c[nH]c3ncnc(-c4ccc(CNC(=O)c5ccccc5)c(F)c4)c23)CC1 test_result=718

====

target: Tyrosine-protein kinase BTK (Homo sapiens, UniProt Q06187); experiment: Inhibition of BTK (unknown origin) measured by ADP-Glo assay
Sequence (Q06187 whole entry): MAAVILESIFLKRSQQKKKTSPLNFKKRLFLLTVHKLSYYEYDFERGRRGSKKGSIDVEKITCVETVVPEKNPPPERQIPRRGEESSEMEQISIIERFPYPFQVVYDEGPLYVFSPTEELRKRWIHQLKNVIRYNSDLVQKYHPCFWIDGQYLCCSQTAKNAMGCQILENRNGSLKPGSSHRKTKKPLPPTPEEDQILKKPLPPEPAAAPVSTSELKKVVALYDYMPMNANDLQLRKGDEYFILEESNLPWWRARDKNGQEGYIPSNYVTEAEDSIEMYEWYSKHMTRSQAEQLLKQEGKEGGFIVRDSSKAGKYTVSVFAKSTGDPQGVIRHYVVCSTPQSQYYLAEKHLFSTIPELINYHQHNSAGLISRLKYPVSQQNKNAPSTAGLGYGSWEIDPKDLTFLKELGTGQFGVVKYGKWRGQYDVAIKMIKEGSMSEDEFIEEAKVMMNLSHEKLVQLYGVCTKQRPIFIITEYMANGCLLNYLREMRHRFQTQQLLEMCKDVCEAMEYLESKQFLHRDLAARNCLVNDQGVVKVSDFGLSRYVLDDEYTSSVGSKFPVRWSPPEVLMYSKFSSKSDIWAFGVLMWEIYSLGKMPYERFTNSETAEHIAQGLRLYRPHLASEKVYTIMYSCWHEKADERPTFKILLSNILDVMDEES
pIC50: −log10 of the molar value.
Outcome: t for pIC50 of at least 9; f for anything lower.

molecule=C=CC(=O)N1CCC(CNc2ncnc3[nH]cc(C(=O)NCc4ccccc4)c23)CC1 category=f
molecule=C=CC(=O)N1CCC(c2c[nH]c3ncnc(-c4ccc(CNC(=O)c5ccc(C(C)(C)C)cc5)c(F)c4)c23)CC1 category=f
molecule=CC#CC(=O)N1CCC(CNc2ncnc3[nH]cc(C(=O)N4CC(Oc5ccccc5)C4)c23)CC1 category=f
molecule=C=CC(=O)N1CCC(CNc2ncnc3[nH]cc(C(=O)N4CC(Oc5cccc(F)c5)C4)c23)CC1 category=t
molecule=C=CC(=O)N1CCC(CNc2ncnc3[nH]cc(C(=O)N4CC(Oc5cccc(C)c5)C4)c23)CC1 category=t
molecule=C=CC(=O)N1CCC(CNc2ncnc3[nH]cc(C(=O)NCCOc4ccccc4)c23)CC1 category=f
molecule=C=CC(=O)N1CCC(Nc2ncnc3[nH]cc(C(=O)N4CC(Oc5ccccc5)C4)c23)CC1 category=f
molecule="C=CC(=O)N1CCCC(Nc2ncnc3[nH]cc(C(=O)N4CC(Oc5ccccc5)C4)c23)C1 (centres undefined)" category=f

====

A collection of molecules and their measured AUC(0-inf)
experiment: AUC (0 to infinity) in male BALB/c mouse at 10 mg/kg, po; type: ADME, organism-based; set-up: time infinity, dose 10 mg/kg, route po; conditions: in vivo
parameter: AUC(0-inf) (ng·h/mL)

smiles_text=C=CC(=O)N1CCC(CNc2ncnc3[nH]cc(C(=O)N4CC(Oc5cccc(F)c5)C4)c23)CC1 parameter=AUC(0-inf) reading_unit=ng·h/mL test_result=75.3
smiles_text=C=CC(=O)N1CCC(CNc2ncnc3[nH]cc(C(=O)N4CC(Oc5cccc(Cl)c5)C4)c23)CC1 parameter=AUC(0-inf) reading_unit=ng·h/mL test_result=32.9
smiles_text=C=CC(=O)N1CC=C(c2c[nH]c3ncnc(-c4ccc(CNC(=O)c5ccccc5)c(F)c4)c23)CC1 parameter=AUC(0-inf) reading_unit=ng·h/mL test_result=1470
smiles_text=CC#CC(=O)N1CCC(c2c[nH]c3ncnc(-c4ccc(CNC(=O)c5ccc(C(C)(C)C)cc5)c(F)c4)c23)CC1 parameter=AUC(0-inf) reading_unit=ng·h/mL test_result=9.57

====

test: Clearance in male BALB/c mouse at 2 mg/kg, iv; assay type: ADME, organism-based; settings: in vivo
parameter: clearance (mL/min/kg)

smiles_text=CC#CC(=O)N1CCC(c2c[nH]c3ncnc(-c4ccc(CNC(=O)c5ccc(C(C)(C)C)cc5)c(F)c4)c23)CC1 parameter=clearance reading_unit=mL/min/kg test_result=144
smiles_text=C=CC(=O)N1CCC(CNc2ncnc3[nH]cc(C(=O)N4CC(Oc5cccc(F)c5)C4)c23)CC1 parameter=clearance reading_unit=mL/min/kg test_result=61.8
smiles_text=C=CC(=O)N1CC=C(c2c[nH]c3ncnc(-c4ccc(CNC(=O)c5ccccc5)c(F)c4)c23)CC1 parameter=clearance reading_unit=mL/min/kg test_result=47.8
smiles_text=C=CC(=O)N1CCC(CNc2ncnc3[nH]cc(C(=O)N4CC(Oc5cccc(Cl)c5)C4)c23)CC1 parameter=clearance reading_unit=mL/min/kg test_result=92.8
